tested on: HS 578T breast; assay: NCI tumour cell line growth inhibition, 48 h
The reader will find reported TGI values listed item by item below.
Express it in µM; write the number only.

The following molecules have reported results that may help.
{"MOLECULE": "OCC#Cc1ccccc1C#CCCCCCC#Cc1ccccc1C#CCO", "TGI (µM)": 43.7}
{"MOLECULE": "CCCC(=O)Nc1cc(/C=C/C(=O)N2CC(CCl)c3c2cc(O)c2[nH]cc(C)c32)n(C)c1 (stereo unspecified)", "TGI (µM)": "6.35e-05"}

Shift focus to the following entry.
# input Given COc1cccc(/C=N/C(/N=C/c2cccc(OC)c2O)c2cccc(OC)c2O)c1O , state its recorded TGI.
# output 61.5
